Ref: PubChem BioAssay

# experiment.description: VP16 transactivation inhibitors, counter-screen for SRC1 inhibitor project, cell-based, luminescence, high throughput (AID 588824)
# condition.notes: cell-based VP16 transactivation luciferase luminescence; at 3.6 µM
Activity calls are given as the source filed them. Cut-off read from the data, not from the text of the source: active = inhibition above about 25%; inactive = the rest.
Allowed answers: yes = active, no = inactive

Known results for compounds:
compound	cat
Fc1cccc(CSc2nnc3ccc(-c4ccncc4)nn23)c1	no
Nc1nc(N)nc(-c2cc(O)ccc2O)n1	yes
CC(C)(C)c1ccc(C(=O)N2CCCCCC2=O)cc1	yes
Cn1c(Sc2ccc(Cl)cc2)c(C=O)c2ccccc21	yes
Cc1cc(C)c(Nc2cc(S(=O)(=O)O)c(N)c3c2C(=O)c2ccccc2C3=O)c(C)c1	no
O=C(NC1CCCCC1)C(c1cccnc1)N(C(=O)CCl)c1ccc(F)cc1 (stereo unspecified)	yes

Per the records of this test, what outcome belongs to `COc1ccc(-c2c[n+]3c(n2-c2ccccc2)CCCCC3)cc1` ? yes

Per the records of this test, what outcome belongs to CC(=O)Nc1ccc(NC(=O)C(C)OC(=O)CCSc2ccccc2Cl)cc1 (stereo unspecified) ? no

Per the records of this test, what outcome belongs to `C=CCSc1nnc(-c2cc(C(C)(C)C)nn2Cc2ccc(F)cc2)n1C` ? no

Per the records of this test, what outcome belongs to `O=C1C=C(NCCc2cc(Br)c(O)c(Br)c2)C(=O)c2ncccc21` ? no

###

# experiment.description: beta-lactamase reporter inhibitors in CHO cells, confirmation, artefact control for NOD2-RIPK2 interaction inhibitor project, cell-based, CHO-K1 CMV-bla, CCF4 FRET, fluorescence (AID 624371);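 note: 0% = DMSO only wells and 100% = clavulanate high control wells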
# condition.notes: CCF4 FRET ratio, counterscreen, at 4.98 µM, stronger effect = higher value
Some of the results follow.
Readings of inhibition for the listed compounds
The reply should contain only the number, in %.

Solved cases below.
> print(dat)
                                   compound  reported.metric  units.symbol  value.observed
1  O=C(NN=Cc1ccc(N2CCOCC2)cc1)c1cc2ccccc2cc1O       inhibition             %            2.74
2       O=C(NC1=CC(=O)c2ccccc2C1=O)c1ccccc1       inhibition             %           -4.54
3  CC(=O)Nc1ccc(C=Cc2ccc([N+](=O)[O-])cc2)cc1       inhibition             %            33.9
4  O=C1CC(C(F)(F)C(F)(F)C(F)(F)C(F)(F)F)=Nc2ccccc2N1       inhibition             %            0.83
5  Nc1c(C(=O)c2cccs2)sc2nsc(SCCN3CCCCC3)c12       inhibition             %            36.9
6  O=C(CSc1ncn[nH]1)Nc1nc(-c2cccc([N+](=O)[O-])c2)cs1       inhibition             %            3.63

What does the data say about its inhibition? Entry: CCOC(=O)C1=C(C)N(C[C@@H]2CC[C@@H](Cc3ccc(-c4ccccc4)cc3)O2)C(=O)NC1c1ccc([N+](=O)[O-])cc1 (some centres not stated) -1.01

What does the data say about its inhibition? Entry: O=C1C(=O)N(CC2COc3ccccc3O2)c2ccccc21 (configuration not stated) -10.2

What does the data say about its inhibition? Entry: `Cc1cccc2sc(N(CCCN(C)C)C(=O)CCS(=O)(=O)c3ccccc3)nc12` 7

What does the data say about its inhibition? Entry: COc1ccc(C(C[N+](=O)[O-])n2nc(C)cc2C)cc1 (configuration not stated) -5.9

What does the data say about its inhibition? Entry: `O=C(Cc1csc(Nc2nc(=S)[nH]c3ccccc23)n1)NCCCN1CCN(c2cccc(Cl)c2)CC1` 55.8
